Data credit: patent US20180079804A1

target.or.test.system: T1, full length human tau SEQ ID NO: 01 (human, UniProt P10636 1-758)
T1 construct: not phosphorylated; also called tau protein; non-phosphorylated full-length human tau
T1 sequence (P10636 other isoform, or with tags, fused parts or gaps limits assumed): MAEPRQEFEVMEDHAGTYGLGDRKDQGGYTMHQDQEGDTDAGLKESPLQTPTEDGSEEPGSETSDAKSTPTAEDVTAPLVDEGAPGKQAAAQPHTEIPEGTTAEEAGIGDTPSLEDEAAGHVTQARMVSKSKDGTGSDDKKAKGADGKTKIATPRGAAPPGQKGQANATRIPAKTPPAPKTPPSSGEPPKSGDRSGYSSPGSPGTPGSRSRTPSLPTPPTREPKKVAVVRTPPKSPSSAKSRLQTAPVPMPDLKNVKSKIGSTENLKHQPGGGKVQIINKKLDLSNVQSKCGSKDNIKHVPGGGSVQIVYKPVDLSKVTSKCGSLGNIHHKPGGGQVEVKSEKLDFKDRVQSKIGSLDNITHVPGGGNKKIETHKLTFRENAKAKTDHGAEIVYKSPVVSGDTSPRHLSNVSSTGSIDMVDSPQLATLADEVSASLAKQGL
assay.method.text: ELISA
measured.endpoint: OD@1 µg/mL (OD)

[[record]]
binder = "VH76A6/VL145B12 (antibody, V domains shown, IgG captured via anti-human Fc) VH: EVQVLESGGGLVQPGGSLRLSCAVSGFSLSNSAINWVRQAPGKGLEWVGYIAVSGNTYYASWAKGRFTISRDNSKNTVYLQMNSLRAEDTAVYYCGKSNIWGQGTLVTVSS VL: AQVMTQSPSSLSASVGDRVTITCRSSQSVRSNKLAWFQQKPGQPPKRLIYAASNLDFGVPSRFSGSGSGTEFTLTISSLQPEDFATYYCLGYFDSSADIVAFGGGTKVEIK"
value_unit = "OD"
measured_result = 0.04

